List of LD50 values.
# protocolSummary: Acute toxicity (LD50) in mice
# experimentalParameters: mouse, in vivo, oral, drug, read-out: Acute Toxicity (LD50), Oral Administration, Drug
Number only, in mg/kg; omit the unit.

Below, each entry is followed by its recorded LD50 result.
compound	measureUnit	LD50
COc1cccc2c1C(=O)c1c(O)c3c(c(O)c1C2=O)C[C@@](O)(C(=O)CO)C[C@@H]3O[C@H]1C[C@H](N)[C@H](O)[C@H](C)O1	mg/kg	737
CCCCC[C@H](O)/C=C/[C@H]1[C@H](O)CC(=O)[C@@H]1CCCCCCC(=O)O [Prostaglandin E1, prostaglandin E1]	mg/kg	7570
COc1cccc2c1C(=O)c1c(O)c3c(c(O)c1C2=O)C[C@@](O)(C(C)=O)C[C@@H]3O[C@H]1C[C@H](N)[C@H](O)[C@H](C)O1	mg/kg	271

# context switch: different compound, same LD50
Prompt: Reported LD50 for `O=c1[nH]cc(F)c(=O)[nH]1` : what is it?
Completion: 249

====

# protocolSummary: Acute toxicity (LD50) in mice
# experimentalParameters: mouse, in vivo, intravenous, drug, read-out: Acute Toxicity (LD50), Intravenous Administration, Drug
measureName: LD50 (mg/kg)
Number only, in mg/kg; omit the unit.

compound	measureName	recordedMeasurement
COc1cccc2c1C(=O)c1c(O)c3c(c(O)c1C2=O)C[C@@](O)(C(=O)CO)C[C@@H]3O[C@H]1C[C@H](N)[C@H](O)[C@H](C)O1 [Adriamycin, adriamycin]	LD50	9.1
COc1cccc2c1C(=O)c1c(O)c3c(c(O)c1C2=O)C[C@@](O)(C(C)=O)C[C@@H]3O[C@H]1C[C@H](N)[C@H](O)[C@H](C)O1 [Daunomycin, daunomycin]	LD50	23.5

# context switch: different compound, same LD50
Prompt: Reported LD50 for O=c1[nH]cc(F)c(=O)[nH]1 [5-Fluorouracil] : what is it?
Completion: 173

====

List of solubility values.
# protocolSummary: Solubility in distilled water for injection
# Format: physicochemical
# experimentalParameters: component drug; distilled water for injection, 20° C.
Remember to put the unit after the number in your answer.

molecule	recordedMeasurement
O=c1[nH]cc(F)c(=O)[nH]1 [5-Fluorouracil]	13000 µg/mL
CC(C(=O)O)c1ccc(-c2ccccc2)c(F)c1 (stereo not shown) [Flurbiprofen, flurbiprofen]	150 µg/mL
COc1cccc2c1C(=O)c1c(O)c3c(c(O)c1C2=O)C[C@@](O)(C(C)=O)C[C@@H]3O[C@H]1C[C@H](N)[C@H](O)[C@H](C)O1 [Daunomycin, daunomycin]	20000 µg/mL
C[C@@H]1C[C@H]2[C@@H]3CCC4=CC(=O)C=C[C@]4(C)[C@@]3(F)[C@@H](O)C[C@]2(C)[C@@]1(O)C(=O)CO [Dexamethasone, dexamethasone]	50 µg/mL
COc1cccc2c1C(=O)c1c(O)c3c(c(O)c1C2=O)C[C@@](O)(C(=O)CO)C[C@@H]3O[C@H]1C[C@H](N)[C@H](O)[C@H](C)O1 [Adriamycin, adriamycin]	7000 µg/mL
COc1ccc2c(c1)c(CC(=O)OCC(=O)O)c(C)n2C(=O)c1ccc(Cl)cc1 [Acemetacin, acemetacin]	400 µg/mL

# context switch: different molecule, same solubility
Prompt: Reported solubility for CCCCC[C@H](O)/C=C/[C@H]1[C@H](O)CC(=O)[C@@H]1CCCCCCC(=O)O [Prostaglandin E1, prostaglandin E1] : what is it?
Completion: 70 µg/mL
